Data credit: paper doi:10.1101/2025.11.04.686469

- Tested on: THP-1 macrophages
- EXPERIMENT_DESCRIPTION: Effect of compounds on host cell viability (MTT)
- Type: cell-based
- STATED_CONDITIONS: read-out: 24h LC50; THP1 macrophages, 24-hour incubation, MTT assay (Supplemental Table 2)
EXPERIMENTAL_ENDPOINT: CC50 (µM)
Reply numerically in µM, unit not repeated.

Record excerpt, results attached:
FC(F)(F)c1cn(-c2ccc(N3CCNCC3)cc2)c(-c2ccc(Cl)cc2)n1 [Compound 51] = 25.7
CC(=O)NCCCOc1ccc(CN2CCC(Oc3ccc(-n4nc(C(F)(F)F)cc4C4CCCCC4)cc3)CC2)cc1 [Compound 430] = 16.5

Note: attention shifts to another entry.
I'm curious: which CC50 was measured for FC(F)(F)c1cc(-c2cccnc2)n(-c2ccc(Br)cc2)n1 [Compound 249] tested on THP-1 macrophages? 50

###

- EXPERIMENT_DESCRIPTION: Effect of compounds on host cell viability (MTT)
- Assay type: cell-based
- STATED_CONDITIONS: human
Listing: CC50 at 24 h of selected compounds
Reply numerically in µM, unit not repeated.

NCC(=O)Nc1ccc(-n2nc(C(F)(F)F)cc2-c2ccc3c(ccc4ccccc43)c2)cc1 [AR-12, reference compound] = 13.3

Note: attention shifts to another entry.
Data request, read-out CC50 at 24 h, for N#Cc1ccc(CNCC(=O)Nc2ccc(-n3nc(C(F)(F)F)cc3C3CCCCC3)cc2)cc1 [Compound 354] 22

###

Listing: CC50 of selected compounds
- System: THP-1 macrophages
- EXPERIMENT_DESCRIPTION: Effect of compounds on host cell viability (MTT)
- Type: cell-based
- STATED_CONDITIONS: read-out: 24h LC50; THP1 macrophages, 24-hour incubation, MTT assay (Supplemental Table 2)
- Experimental: The cells were cultured at 37C, 5% CO2 in RPMI medium (ATCC) supplemented with 10% FBS, 1% Penicillin/Streptomycin and 0.05 mM of β-mercaptoethanol. Cells were used in experiments up to passage 10. Effect of the compounds on THP-1 cell viability measured using thiazolyl blue tetrazolium bromide which measures cell metabolic activity (MTT). THP-1 cells were seeded in a 96 well plate (25,000 cells/well) overnight then differentiated with 150 nM phorbol 12-myristate 13-acetate (PMA) over 72 hours. […]
Reply numerically in µM, unit not repeated.

Record excerpt, results attached:
CCCNC1CN(c2ccc(-n3nc(C(F)(F)F)cc3-c3ccc(-c4ccc(C(F)(F)F)cc4)cc3)cc2)C1 = 9.9
CCc1cc(C(F)(F)F)nn1-c1ccc(NC2CCNC2)cc1 (stereo not shown) = 27

I'm curious: which CC50 was measured for FC(F)(F)c1ccc(-c2ccc(-c3cc(C(F)(F)F)nn3-c3ccc(N4CCC(NC5CCCCCC5)C4)cc3)cc2)cc1 (stereo not shown) tested on THP-1 macrophages? 12.4

I'm curious: which CC50 was measured for FC(F)(F)c1cc(C(F)(F)F)n(-c2ccc(NC3CCNC3)cc2)n1 (stereo not shown) tested on THP-1 macrophages? 21.9

I'm curious: which CC50 was measured for NC(Cc1ccccc1)C(=O)N1CCC(Nc2ccc(-n3nc(C(F)(F)F)cc3-c3ccc(-c4ccc(C(F)(F)F)cc4)cc3)cc2)C1 (stereo not shown) tested on THP-1 macrophages? 6.1

###

- Test system: intracellular L. donovani amastigotes
- EXPERIMENT_DESCRIPTION: Image-based (Giemsa staining) evaluation of intracellular anti-leishmanial activity in bone marrow derived macrophages
- Format: cell-based, Leishmania donovani
- STATED_CONDITIONS: Giemsa staining, 72-hour incubation, read-out: Intracellular L. donovani amastigotes IC50
EXPERIMENTAL_ENDPOINT: IC50 (µM)
Reply numerically in µM, unit not repeated.

Record excerpt, results attached:
CC(C)(C)C#Cc1ccc(-c2cc(C(F)(F)F)nn2-c2ccc(N3CCNCC3)cc2)cc1.Cl = 1
O=C(Nc1ccc(-n2cc(C(F)(F)F)nc2-c2ccc(-c3ccccc3)cc2)cc1)C1CCN(Cc2ccccc2)C1 (centres unmarked) = 0.6
CC(C)(C)OC(=O)NC1CCN(c2ccc(-n3nncc3-c3ccc(C(F)(F)F)cc3)cc2)C1 (centres unmarked) = 1.7
FC(F)(F)c1ccc(-c2ccc(-c3cc(C(F)(F)F)nn3-c3ccc(NC4CCNC4)cc3)cc2)cc1 (centres unmarked) = 2.5
N[C@@H]1CCN(c2ccc(-n3nc(C(F)(F)F)cc3-c3ccc(-c4ccc(C(F)(F)F)cc4)cc3)cc2)C1 = 0.4

I'm curious: which IC50 was measured for Nc1ccc(CNC2CCN(c3ccc(-n4nc(C(F)(F)F)cc4-c4ccc(-c5ccc(C(F)(F)F)cc5)cc4)cc3)C2)cc1 (centres unmarked) tested on intracellular L. donovani amastigotes? 0.9

I'm curious: which IC50 was measured for N[C@H]1CCN(c2ccc(-n3nc(C(F)(F)F)cc3-c3ccc(-c4ccc(C(F)(F)F)cc4)cc3)cc2)C1 tested on intracellular L. donovani amastigotes? 1.6

I'm curious: which IC50 was measured for FC(F)(F)c1ccc(-c2nc(C(F)(F)F)cn2-c2ccc(NC3CCNCC3)cc2)cc1 tested on intracellular L. donovani amastigotes? 2.6

I'm curious: which IC50 was measured for NCC(=O)Nc1ccc(-n2cc(C(F)(F)F)nc2-c2ccc(-c3ccccc3)cc2)cc1 tested on intracellular L. donovani amastigotes? 9.1

I'm curious: which IC50 was measured for Oc1ccccc1CN1CCC(Nc2ccc(-n3nc(C(F)(F)F)cc3-c3ccc(-c4ccc(C(F)(F)F)cc4)cc3)cc2)C1 (centres unmarked) tested on intracellular L. donovani amastigotes? 2.4

I'm curious: which IC50 was measured for Oc1ccc(CNC2CCN(c3ccc(-n4nc(C(F)(F)F)cc4C4CCCCC4)cc3)CC2)cc1 tested on intracellular L. donovani amastigotes? 3.4

###

- Tested on: THP-1 macrophages
- EXPERIMENT_DESCRIPTION: Effect of compounds on host cell viability (MTT)
- Type: cell-based
- STATED_CONDITIONS: read-out: 24h LC50; THP1 macrophages, 24-hour incubation, MTT assay (Supplemental Table 2)
EXPERIMENTAL_ENDPOINT: CC50 (µM)
Reply numerically in µM, unit not repeated.

Data request, read-out CC50, for CC(C)(C)OC(=O)NC1CCN(C(=O)c2ccc(-n3cc(C(F)(F)F)nc3-c3ccc(-c4ccc(C(F)(F)F)cc4)cc3)c(F)c2)C1 (stereo not drawn) 18

Data request, read-out CC50, for Fc1cccc(CNC2CCN(c3ccc(-n4nc(C(F)(F)F)cc4C4CCCCC4)cc3)CC2)c1 32.1

Data request, read-out CC50, for N#Cc1ccc(CN2CCC(Nc3ccc(-n4nc(C(F)(F)F)cc4C4CCCCC4)cc3)CC2)cc1 [Compound 323] 28.3

Data request, read-out CC50, for FC(F)(F)c1cc(C2CCCCC2)n(-c2ccc(NC3CCN(Cc4ccccc4)CC3)cc2)n1 [Compound 321] 23.9

Data request, read-out CC50, for FC(F)(F)c1cc(-c2ccco2)n(-c2ccc(NC3CCNC3)cc2)n1 (stereo not drawn) 15.6

Data request, read-out CC50, for Fc1cccc(CN2CC(Nc3ccc(-n4nc(C(F)(F)F)cc4C4CCCCC4)cc3)C2)c1 23.3

Data request, read-out CC50, for NC1CCN(c2ccc(-n3nc(C(F)F)cc3-c3ccc(-c4ccc(C(F)(F)F)cc4)cc3)cc2)C1 (stereo not drawn) 14.3

###

- Tested on: THP-1 macrophages
- EXPERIMENT_DESCRIPTION: Effect of compounds on host cell viability (MTT)
- Type: cell-based
- STATED_CONDITIONS: read-out: 24h LC50; THP1 macrophages, 24-hour incubation, MTT assay (Supplemental Table 2)
EXPERIMENTAL_ENDPOINT: CC50 (µM)
Reply numerically in µM, unit not repeated.

CNS(=O)(=O)Cc1ccc(-n2nc(C(F)(F)F)cc2-c2ccc(-c3ccc(C(F)(F)F)cc3)cc2)cc1 [Compound 191] = 12
NCC(=O)Nc1ccc(-n2cc(C(F)(F)F)nc2-c2ccc(Br)cc2)cc1 [Compound 195] = 38.6
FC(F)(F)c1ccc(-c2ccc(-c3cc(C(F)(F)F)nn3-c3ccc(OC4CCNC4)cc3)cc2)cc1 (stereo not drawn) [Compound 144] = 5.4
Nc1ccc(-n2cc(C(F)(F)F)nc2-c2ccc(-c3ccc(C(F)(F)F)cc3)cc2)cc1 [Compound 156] = 20.8
NCCCCCOc1ccc(CN2CCC(Oc3ccc(-n4nc(C(F)(F)F)cc4C4CCCCC4)cc3)CC2)cc1 [Compound 432] = 5.6

Data request, read-out CC50, for COc1ccc(-c2cc(C(F)(F)F)nn2-c2ccc(NC3CCNC3)cc2)cc1OC (stereo not drawn) [Compound 260] 13.9

Data request, read-out CC50, for COc1ccc(CNC2CCN(c3ccc(-n4nc(C(F)(F)F)cc4-c4ccc(-c5ccc(C(F)(F)F)cc5)cc4)cc3)C2)cc1 (stereo not drawn) [Compound 14] 50
